Data credit: ChEMBL document CHEMBL4049439

# assay-method-text: Lipophilicity, log D of the compound at pH 7.4
# Type: physicochemical
# applied-conditions: buffer

chem-smiles | logD
COc1ccc2ncc(F)c(C[C@H](O)[C@@H]3CC[C@@H](NCc4ccc5c(n4)NC(=O)CO5)CO3)c2n1 | 2
COc1ccc2ncc(F)c(C[C@H](O)C34CCC(NCc5ccc6c(n5)NC(=O)CO6)(CC3)CO4)c2n1 | 2
COc1ccc2ncc(F)c(C[C@H](N)[C@@H]3CC[C@@H](NCc4ccc5c(n4)NC(=O)CO5)CO3)c2n1 | 0.9
COc1ccc2ccc(=O)n(C[C@H](N)[C@@H]3CC[C@@H](NCc4ccc5c(n4)NC(=O)CO5)CO3)c2n1 | 0.3
COc1ccc2ccc(=O)n(C[C@H](O)[C@@H]3CC[C@@H](NCc4ccc5c(n4)NC(=O)CO5)CO3)c2n1 | 2

* * *

# assay-method-text: Volume of distribution at steady state in dog at 1 mg/kg, iv by LC-MS/MS analysis
# Assay type: ADME, organism-based, Canis lupus familiaris
# applied-conditions: in vivo, read-out: Vdss

chem-smiles | unit-text | Vd
COc1ccc2ncc(F)c(C[C@H](N)[C@@H]3CC[C@@H](NCc4ccc5c(n4)NC(=O)CO5)CO3)c2n1 | L/kg | 61
COc1ccc2ccc(=O)n(C[C@H](N)[C@@H]3CC[C@@H](NCc4ccc5c(n4)NC(=O)CO5)CO3)c2n1 | L/kg | 2.5

* * *

# Tested on: Escherichia coli
# assay-method-text: Antibacterial activity against wild-type Escherichia coli ATCC 25922 by CLSI broth microdilution method
# Type: functional
Below: a set of entries, each annotated with reported log10(MIC).
experimental-readout: log10(MIC) (log10 of the value in µg/mL)

compound | endpoint-value
COc1ccc2ncc(=O)n(C[C@H](N)[C@@H]3CC[C@@H](NCc4ccc5c(n4)NC(=O)CO5)CO3)c2n1 | -0.30
COc1ccc2ccc(=O)n(C[C@H](O)[C@@H]3CC[C@@H](NCc4cc5c(cn4)OCCS5)CO3)c2n1 | 0.60
COc1ccc2nccc(CC(N)[C@@H]3CC[C@@H](NCc4ccc5c(n4)NC(=O)CO5)CO3)c2n1 (mixture of isomers) | -0.90
COc1ccc2ccc(=O)n(C[C@H](O)[C@@H]3CC[C@@H](NCc4cc5c(cn4)OCCO5)CO3)c2n1 | 0.60
COc1cnc2ccc(=O)n(C[C@H](N)[C@@H]3CC[C@@H](NCc4ccc5c(n4)NC(=O)CO5)CO3)c2c1 | 0.00
COc1ccc2nccc(C[C@H](N)[C@@H]3CC[C@@H](NCc4ccc5c(n4)NC(=O)CO5)CO3)c2n1 | -0.90
COc1ccc2ncc(=O)n(C[C@H](N)[C@@H]3CC[C@@H](NCc4ccc5c(n4)NC(=O)CO5)CO3)c2c1 | -0.60

* * *

# subject-of-test: hERG (KCNH2) (Homo sapiens, UniProt Q12809)
# Sequence (Q12809 whole entry): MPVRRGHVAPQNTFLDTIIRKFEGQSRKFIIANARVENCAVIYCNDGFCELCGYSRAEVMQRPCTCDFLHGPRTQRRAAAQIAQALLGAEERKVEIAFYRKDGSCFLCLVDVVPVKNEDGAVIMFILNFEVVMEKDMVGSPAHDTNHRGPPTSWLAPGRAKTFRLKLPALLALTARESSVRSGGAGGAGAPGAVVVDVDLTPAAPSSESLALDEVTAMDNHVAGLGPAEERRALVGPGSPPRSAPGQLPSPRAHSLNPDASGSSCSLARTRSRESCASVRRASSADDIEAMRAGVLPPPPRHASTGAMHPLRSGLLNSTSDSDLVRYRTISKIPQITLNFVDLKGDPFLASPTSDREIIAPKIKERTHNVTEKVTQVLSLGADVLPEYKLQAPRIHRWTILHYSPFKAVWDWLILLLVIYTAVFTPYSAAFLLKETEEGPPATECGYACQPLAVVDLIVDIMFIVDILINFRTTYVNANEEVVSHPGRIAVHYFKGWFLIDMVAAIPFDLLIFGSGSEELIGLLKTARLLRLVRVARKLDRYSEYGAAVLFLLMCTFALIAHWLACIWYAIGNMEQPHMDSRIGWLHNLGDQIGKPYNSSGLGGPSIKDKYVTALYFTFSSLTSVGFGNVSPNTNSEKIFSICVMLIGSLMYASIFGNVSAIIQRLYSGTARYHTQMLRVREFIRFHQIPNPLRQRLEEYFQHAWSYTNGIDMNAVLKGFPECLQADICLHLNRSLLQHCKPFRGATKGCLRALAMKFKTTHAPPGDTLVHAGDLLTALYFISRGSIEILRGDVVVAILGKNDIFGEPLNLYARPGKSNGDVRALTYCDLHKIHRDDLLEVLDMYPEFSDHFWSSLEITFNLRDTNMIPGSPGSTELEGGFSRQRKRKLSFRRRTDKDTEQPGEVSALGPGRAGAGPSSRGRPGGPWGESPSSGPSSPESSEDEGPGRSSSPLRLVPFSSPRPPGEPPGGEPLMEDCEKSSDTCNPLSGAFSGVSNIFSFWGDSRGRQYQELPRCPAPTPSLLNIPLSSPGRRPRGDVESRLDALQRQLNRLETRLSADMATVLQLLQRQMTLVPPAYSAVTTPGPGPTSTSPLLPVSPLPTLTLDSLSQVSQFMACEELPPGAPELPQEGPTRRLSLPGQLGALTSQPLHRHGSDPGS
# assay-method-text: Inhibition of human ERG assessed as reduction of K+ current
# applied-conditions: human
experimental-readout: IC20

chem-smiles | endpoint-value
COc1ccc2ncc(F)c(C[C@H](N)[C@@H]3CC[C@@H](NCc4ccc5c(n4)NC(=O)CO5)CO3)c2n1 | 1.2 µM
COc1ccc2ccc(=O)n(C[C@H](O)[C@@H]3CC[C@@H](NCc4ccc5c(n4)NC(=O)CO5)CO3)c2n1 | 3.7 µM
COc1ccc2ccc(=O)n(C[C@H](N)[C@@H]3CC[C@@H](NCc4ccc5c(n4)NC(=O)CO5)CO3)c2n1 | 13 µM
